Tested on: LXRα (Homo sapiens, UniProt Q13133)
Construct: Co-transfection expression plasmids, comprising full-length LXRα (pCMX-h LXRα); expressed in transfected cells; host or cells: CV-1 African green monkey kidney cells, transient transfection with FuGENE6
Sequence (Q13133 whole entry): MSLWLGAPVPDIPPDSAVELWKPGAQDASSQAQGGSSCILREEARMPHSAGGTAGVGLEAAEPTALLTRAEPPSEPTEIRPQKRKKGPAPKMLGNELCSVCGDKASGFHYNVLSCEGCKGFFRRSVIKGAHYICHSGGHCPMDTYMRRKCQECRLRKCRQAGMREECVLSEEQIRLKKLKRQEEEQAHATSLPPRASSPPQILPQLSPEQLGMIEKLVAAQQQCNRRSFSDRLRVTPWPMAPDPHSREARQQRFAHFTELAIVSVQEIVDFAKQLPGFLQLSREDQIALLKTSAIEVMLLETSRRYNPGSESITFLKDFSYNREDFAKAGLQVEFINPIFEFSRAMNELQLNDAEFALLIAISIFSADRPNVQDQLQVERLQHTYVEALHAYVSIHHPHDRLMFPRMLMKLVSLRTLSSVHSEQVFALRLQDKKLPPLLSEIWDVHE
Sequence (P19793 whole entry partner): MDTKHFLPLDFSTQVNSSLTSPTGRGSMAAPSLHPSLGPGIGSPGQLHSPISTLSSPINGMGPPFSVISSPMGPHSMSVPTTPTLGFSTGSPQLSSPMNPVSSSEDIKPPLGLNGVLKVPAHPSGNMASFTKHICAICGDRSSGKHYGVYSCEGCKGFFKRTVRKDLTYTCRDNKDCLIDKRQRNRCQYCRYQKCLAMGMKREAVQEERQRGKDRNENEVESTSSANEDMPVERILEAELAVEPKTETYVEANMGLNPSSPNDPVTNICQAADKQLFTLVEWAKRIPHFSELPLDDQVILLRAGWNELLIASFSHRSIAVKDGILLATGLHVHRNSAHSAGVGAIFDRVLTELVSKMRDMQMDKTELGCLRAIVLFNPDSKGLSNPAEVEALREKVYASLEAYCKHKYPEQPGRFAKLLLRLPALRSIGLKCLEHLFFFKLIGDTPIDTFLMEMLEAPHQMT
Test method notes: LXR/LXRE co-transfection assay (LXRα)
Format: cell-based
Conditions used: efficacy relative to high control N-(3-((4-fluorophenyl)-(naphthalene-2-sulfonyl)amino)propyl)-2,2-dimethylpropionamide; read-out: LXRα Eff (%)
Procedure: To measure the ability of compounds to activate or inhibit the transcriptional activity of LXR in a cell based assay, the co-transfection assay was used. It has been shown that LXR functions as a heterodimer with RXR. […] Treatment of transfected cells with an LXR agonist increases the transcriptional activity of LXR, which is measured by an increase in luciferase activity. […]
Field: Emax. Provide a value for each of the molecules that follow.
Numbers only, in %.

[
  {
    "Molecule": "CC(C)(O)c1cn(-c2ccc(-c3cc(F)c(CO)c(S(C)(=O)=O)c3)cc2)c(C(C)(C)c2ccccc2F)n1 [Example 1]",
    "Reported measurement": 13
  },
  {
    "Molecule": "CC(C)(O)c1cn(-c2ccc(-c3cc(F)c(CO)c(S(C)(=O)=O)c3)cc2F)c(C(C)(C)c2c(Cl)cccc2Cl)n1 [Example 9]",
    "Reported measurement": 20
  },
  {
    "Molecule": "CC(C)(O)c1cn(-c2ccc(-c3cc(F)c(CO)c(S(C)(=O)=O)c3)cc2)c(C(C)(C)c2c(Cl)cccc2Cl)n1 [Example 5]",
    "Reported measurement": 25
  }
]

Proceed to the following item.
The molecule listed as CC(C)(O)c1cn(-c2ccc(-c3cc(F)c(CO)c(S(C)(=O)=O)c3)cc2F)c(Cc2ccccc2F)n1 [Example 16] shows Emax equal to 19
